# experimental_target: T1, mouse PRLR on Baf3-mPRLR cells (mouse, UniProt Q08501 20-608)
# T1 sequence (looked up): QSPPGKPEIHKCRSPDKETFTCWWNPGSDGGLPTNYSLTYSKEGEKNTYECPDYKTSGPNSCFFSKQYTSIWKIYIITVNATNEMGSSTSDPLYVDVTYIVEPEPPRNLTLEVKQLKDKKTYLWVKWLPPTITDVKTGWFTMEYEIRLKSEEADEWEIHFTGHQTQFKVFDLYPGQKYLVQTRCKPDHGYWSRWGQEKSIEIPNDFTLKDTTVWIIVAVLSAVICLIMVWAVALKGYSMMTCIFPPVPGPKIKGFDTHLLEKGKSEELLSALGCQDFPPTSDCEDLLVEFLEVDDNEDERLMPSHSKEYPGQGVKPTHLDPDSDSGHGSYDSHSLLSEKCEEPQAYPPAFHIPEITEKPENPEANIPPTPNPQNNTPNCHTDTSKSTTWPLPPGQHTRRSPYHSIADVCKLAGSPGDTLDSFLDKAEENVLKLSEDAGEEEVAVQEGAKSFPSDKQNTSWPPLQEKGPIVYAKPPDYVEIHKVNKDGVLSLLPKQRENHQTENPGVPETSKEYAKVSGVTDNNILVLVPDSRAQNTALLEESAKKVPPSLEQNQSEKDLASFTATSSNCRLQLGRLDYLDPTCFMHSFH
# protocol_details: cell-based or functional assay
value_type: Baf3-mPRLR proliferation IC50

Study these solved cases before continuing.
binder: Ab20 (antibody, human IgG1, kappa, V domains shown, humanized from Ab6; G1; also called Ab1 HC.1a and Ab1 LC.2) VH: EVQLVQSGAEVKKPGSSVKVSCKASGYTFTTYWMHWVRQAPGQGLEWIGEIDPSDSYSNYNQKFKDRATLTVDKSTSTAYMELSSLRSEDTAVYYCARNGGLGPAWFSYWGQGTLVTVSS VL: EIVMTQSPATLSVSPGERATLSCKASQYVGTAVAWYQQKPGQAPRLLIYSASNRYTGIPARFSGSGSGTEFTLTISSLQSEDFAVYYCQQYSSYPWTFGGGTKVEIKR
Baf3-mPRLR proliferation IC50: > 30 µg/mL
--
binder: Ab52 (antibody, human IgG1, kappa, V domains shown, humanized from Ab8; G1; also called Ab3 HC.1b and Ab3 LC.1b) VH: EVQLVQSGAEVKKPGASVKVSCKASGYTFTDYNIHWVRQAPGQGLEWIGYIYPNNDGTGYAQKLQGRVTMTVDTSTSTAYMELRSLRSDDTAVYYCARGDGNYVGDMDYWGQGTTVTVSS VL: DIQMTQSPSSLSASVGDRVTITCRASENIYSYLAWYQQKPGKAPKLLVYNAKTLAEGVPSRFSGSGSGTDFTLTISSLQPEDFATYYCQHHYATPFTFGQGTKLEIKR
Baf3-mPRLR proliferation IC50: > 30 µg/mL

Which Baf3-mPRLR proliferation IC50 value belongs to Ab15 (antibody, human IgG1, kappa, V domains shown, humanized from Ab6; G1; also called Ab1 HC.1 and Ab1 LC.1a) VH: EVQLVQSGAEVKKPGSSVKVSCKASGYTFTTYWMHWVRQAPGQGLEWMGEIDPSDSYSNYNQKFKDRVTITADKSTSTAYMELSSLRSEDTAVYYCARNGGLGPAWFSYWGQGTLVTVSS VL: DIQMTQSPSSVSASVGDRVTITCKASQYVGTAVAWYQQKPGKSPKLLIYSASNRYTGVPSRFSDSGSGTDFTLTISSLQPEDFATYFCQQYSSYPWTFGGGTKVEIKR ?
> 30 µg/mL
